Origin of values: patent US20260274807A1

Parameter EC50: see the listing below.
# targetUnderTest: ERRγ (Homo sapiens, UniProt P62508)
# Sequence (P62508 1-458): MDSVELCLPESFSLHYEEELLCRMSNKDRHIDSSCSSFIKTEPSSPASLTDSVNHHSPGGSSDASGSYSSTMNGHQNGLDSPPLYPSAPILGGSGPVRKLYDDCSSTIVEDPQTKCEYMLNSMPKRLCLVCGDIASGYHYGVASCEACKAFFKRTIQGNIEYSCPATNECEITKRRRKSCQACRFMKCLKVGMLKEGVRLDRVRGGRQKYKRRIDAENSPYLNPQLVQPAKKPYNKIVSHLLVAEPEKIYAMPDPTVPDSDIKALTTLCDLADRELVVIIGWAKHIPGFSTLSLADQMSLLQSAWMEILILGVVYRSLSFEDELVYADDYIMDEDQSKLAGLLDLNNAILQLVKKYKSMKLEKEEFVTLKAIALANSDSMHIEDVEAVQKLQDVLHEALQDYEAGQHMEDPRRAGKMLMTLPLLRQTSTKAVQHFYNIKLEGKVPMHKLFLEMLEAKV
# measurementProtocol: ERRE luciferase reporter assay in HEK293 cells transfected with pcDNA3.1 ERRγ
# particulars: HEK293 cells transfected with ERRE reporter construct and pcDNA3.1 ERRγ; compound for 24 hours; luciferase activity
observationType: EC50

{"chemicalString": "Cc1ccc(-c2nnc(-c3cccc4ccccc34)s2)cc1", "observationType": "EC50", "result": "< 1000 nM"}
{"chemicalString": "COc1ccc(-c2nnc(-c3cccs3)o2)cc1", "observationType": "EC50", "result": "< 1000 nM"}
{"chemicalString": "COc1ccc(-c2nnc(-c3ccccc3Cl)o2)cc1", "observationType": "EC50", "result": "< 1000 nM"}
{"chemicalString": "O=[N+]([O-])c1ccc(-c2nnc(-c3ccc(C(F)(F)F)cc3)o2)cc1", "observationType": "EC50", "result": "> 5000 nM"}
{"chemicalString": "Cc1ccccc1-c1nnc(-c2ccccc2)o1", "observationType": "EC50", "result": "< 1000 nM"}
{"chemicalString": "O=[N+]([O-])c1ccccc1Cc1nnc(-c2ccc(C(F)(F)F)cc2)s1", "observationType": "EC50", "result": "1000 to 5000 nM"}
{"chemicalString": "O=[N+]([O-])c1ccccc1-c1nnc(-c2cccc(C(F)(F)F)c2)o1", "observationType": "EC50", "result": "1000 to 5000 nM"}
{"chemicalString": "COc1ccc(-c2nnc(-c3ccc(C)cc3)o2)cc1", "observationType": "EC50", "result": "< 1000 nM"}
{"chemicalString": "Cc1ccc(-c2nnc(-c3cncs3)s2)cc1", "observationType": "EC50", "result": "< 1000 nM"}
{"chemicalString": "O=[N+]([O-])c1ccc(-c2nnc(-c3cccc([N+](=O)[O-])c3)o2)cc1", "observationType": "EC50", "result": "1000 to 5000 nM"}
{"chemicalString": "Cc1ccc(-c2nnc(-c3cccc(Cl)c3)s2)cc1", "observationType": "EC50", "result": "< 1000 nM"}
{"chemicalString": "c1ccc(-c2ccc(Cc3nnc(-c4ccccc4)s3)cc2)cc1", "observationType": "EC50", "result": "> 5000 nM"}
{"chemicalString": "Nc1ccccc1-c1nnc(-c2ccccc2)o1", "observationType": "EC50", "result": "1000 to 5000 nM"}
{"chemicalString": "Oc1ccc(-c2nnc(-c3ccc4ccccc4c3)s2)cc1", "observationType": "EC50", "result": "< 1000 nM"}
{"chemicalString": "Cc1ccc(-c2nnc(-c3ccnc4ccccc34)s2)cc1", "observationType": "EC50", "result": "< 1000 nM"}
{"chemicalString": "Brc1ccc(-c2nnc(-c3ccccc3)o2)cc1", "observationType": "EC50", "result": "< 1000 nM"}
{"chemicalString": "COc1ccc(-c2nnc(-c3ccccc3N)o2)cc1", "observationType": "EC50", "result": "< 1000 nM"}
{"chemicalString": "COc1ccc(-c2nnc(-c3ccco3)o2)cc1", "observationType": "EC50", "result": "< 1000 nM"}
{"chemicalString": "Cc1cccc(-c2nnc(-c3ccccc3Cl)s2)c1", "observationType": "EC50", "result": "< 1000 nM"}
{"chemicalString": "O=[N+]([O-])c1ccc(-c2nnc(-c3ccc([N+](=O)[O-])cc3)o2)cc1", "observationType": "EC50", "result": "1000 to 5000 nM"}
{"chemicalString": "Clc1ccc(-c2nnc(-c3ccc(Cl)cc3)o2)cc1", "observationType": "EC50", "result": "< 1000 nM"}
{"chemicalString": "COC(=O)c1ccc(-c2nnc(-c3ccccc3Cl)s2)cc1", "observationType": "EC50", "result": "< 1000 nM"}

###

Parameter EC50: see the listing below.
# targetUnderTest: ERRγ (Homo sapiens, UniProt P62508)
# Construct: expressed in transfected cells; host or cells: HEK293
# measurementProtocol: ERRE luciferase reporter assay in HEK293 cells transfected with pcDNA3.1 ERRγ
# Type: cell-based
# particulars: HEK293 cells transfected with ERRE reporter construct and pcDNA3.1 ERRγ; compound for 24 hours; luciferase activity
observationType: EC50

{"chemicalString": "COc1ccc(-c2nnc(-c3ccccc3Cl)s2)cc1", "targetUnderTest": "ERRγ (Homo sapiens, UniProt P62508)", "observationType": "EC50", "result": "< 1 µM"}
{"chemicalString": "COc1cccc(-c2nnc(-c3ccc(C(F)(F)F)cc3)o2)c1", "targetUnderTest": "ERRγ (Homo sapiens, UniProt P62508)", "observationType": "EC50", "result": "> 5 µM"}
{"chemicalString": "Nc1cc(Br)ccc1-c1nnc(-c2ccccc2)o1", "targetUnderTest": "ERRγ (Homo sapiens, UniProt P62508)", "observationType": "EC50", "result": "1 to 5 µM"}
